Source listed as patent US20240059689A1.

Reported values: IC50 for UniProt O94782, one per item.
Sequence (O94782 whole entry): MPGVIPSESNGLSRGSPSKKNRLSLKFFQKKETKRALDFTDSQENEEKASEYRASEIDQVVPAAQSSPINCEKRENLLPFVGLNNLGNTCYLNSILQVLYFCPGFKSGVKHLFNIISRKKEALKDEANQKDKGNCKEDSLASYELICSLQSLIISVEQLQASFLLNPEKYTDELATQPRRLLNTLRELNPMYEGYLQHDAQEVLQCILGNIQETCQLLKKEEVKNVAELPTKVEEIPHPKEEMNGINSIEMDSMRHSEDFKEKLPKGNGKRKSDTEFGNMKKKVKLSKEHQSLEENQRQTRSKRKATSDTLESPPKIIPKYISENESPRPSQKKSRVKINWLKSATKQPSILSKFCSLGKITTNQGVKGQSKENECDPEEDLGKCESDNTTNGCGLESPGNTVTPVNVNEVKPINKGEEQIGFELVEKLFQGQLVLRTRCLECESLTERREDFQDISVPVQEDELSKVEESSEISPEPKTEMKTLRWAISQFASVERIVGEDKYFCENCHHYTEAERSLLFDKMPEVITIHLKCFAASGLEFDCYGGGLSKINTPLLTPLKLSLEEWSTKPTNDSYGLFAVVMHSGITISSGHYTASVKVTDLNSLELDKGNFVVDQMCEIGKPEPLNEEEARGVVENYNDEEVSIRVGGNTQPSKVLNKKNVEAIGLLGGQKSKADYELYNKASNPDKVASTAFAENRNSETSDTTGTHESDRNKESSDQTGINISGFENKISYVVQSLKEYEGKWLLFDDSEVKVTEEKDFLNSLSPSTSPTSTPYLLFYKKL
Sequence (Q8TAF3 whole entry partner): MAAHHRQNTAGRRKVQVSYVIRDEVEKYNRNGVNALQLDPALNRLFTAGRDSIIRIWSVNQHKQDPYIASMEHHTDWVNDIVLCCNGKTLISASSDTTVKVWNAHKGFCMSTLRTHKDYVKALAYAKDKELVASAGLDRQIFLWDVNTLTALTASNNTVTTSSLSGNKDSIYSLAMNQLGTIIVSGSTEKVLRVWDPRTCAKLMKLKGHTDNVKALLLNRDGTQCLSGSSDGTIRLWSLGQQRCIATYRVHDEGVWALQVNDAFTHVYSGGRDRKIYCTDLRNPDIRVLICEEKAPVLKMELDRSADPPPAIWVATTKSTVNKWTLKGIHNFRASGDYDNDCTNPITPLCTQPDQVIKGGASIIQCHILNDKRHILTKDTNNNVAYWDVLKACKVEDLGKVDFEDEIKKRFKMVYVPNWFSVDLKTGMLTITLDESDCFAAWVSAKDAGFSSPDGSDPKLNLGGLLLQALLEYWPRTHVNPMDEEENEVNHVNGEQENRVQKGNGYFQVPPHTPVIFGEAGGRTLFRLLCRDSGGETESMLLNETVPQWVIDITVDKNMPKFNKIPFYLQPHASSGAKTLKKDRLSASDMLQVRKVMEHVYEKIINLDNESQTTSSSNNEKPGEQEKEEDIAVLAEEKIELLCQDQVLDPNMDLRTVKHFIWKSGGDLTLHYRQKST

Example entries and their recorded answers appear below.
compound	IC50
CCn1cc(C(F)(F)F)nc1-c1ccc(Cn2c(=N)n(C)c3cnc(-c4cccnc4OC)nc32)cc1 [Example T-057]	0.1 to 10 µM
Cn1cc(C(F)(F)F)nc1-c1cc(F)c(Cn2c(=N)n(C)c3cnc(-c4ccccc4C(F)(F)F)nc32)c(F)c1 [Example T-046]	0.1 to 10 µM
Cn1cc(C(F)(F)F)nc1-c1ccc(Cn2c(=N)n(C)c3cnc(-c4ccccc4OC(F)(F)F)nc32)cc1 [Example T-033]	< 0.03 µM
COc1ccn(-c2ccc(Cn3c(=N)n(C)c4cnc(-c5ccccc5C(C)C)nc43)cc2F)n1 [Example T-074]	0.1 to 10 µM
CC(C)c1ccccc1-c1ncc2c(n1)n(Cc1ccc(N3CCC(C(F)(F)F)C3)cc1)c(=N)n2C (single isomer, unassigned) [Example A-10d]	0.1 to 10 µM

Record CC(C)c1ccccc1-c1ncc2c(n1)n(Cc1ccc(-c3nccn3C)cc1)c(=N)n2C [Example A-2] , field IC50: 0.1 to 10 µM

Record Cc1nc(-c2ccccc2Cl)nc2c1n(C)c(=N)n2Cc1ccc(-c2nc(Cl)cn2C)cc1 [Example A-36] , field IC50: 0.1 to 10 µM

Record CC(C)c1ccccc1-c1ncc2c(n1)n(Cc1ccc(-c3nc(C(F)(F)F)cn3C3CN(C)C3)cc1)c(=N)n2C [Example T-099] , field IC50: 0.1 to 10 µM

Record CC(C)c1ccccc1-c1nc(-c2ccccc2C(C)C)c2c(n1)n(Cc1ccc(-c3nc(C(F)(F)F)cn3C)cc1)c(=N)n2C (single isomer, unassigned) [Example A-22b] , field IC50: 0.03 to 0.1 µM

Record COc1ncnc(C2CC2)c1-c1ncc2c(n1)n([C@H](C)c1ccc(-n3nc(C(F)(F)F)cc3OC)cc1)c(=N)n2CC(F)(F)F [Example T-109] , field IC50: < 0.03 µM

Record CC(C)c1ccccc1-c1nc(C(=O)N(C)C)c2c(n1)n(Cc1ccc(-c3nc(C(F)(F)F)cn3C)cc1)c(=N)n2C [Example A-40] , field IC50: 0.1 to 10 µM

* * *

Test system: HCC1954
protocol description: Viability assay, BRCA1 WT cell line HCC1954
Format: cell-based
measurement context: Homo sapiens, HCC1954, viability, read-out: HCC1954 rel IC50
pIC50: −log10 of the molar value.
endpoint name: pIC50

Record COc1ncccc1-c1ncc2c(n1)n(Cc1ccc(-c3nc(C(F)(F)F)cn3C)cc1)c(=N)n2CC(F)(F)F [Example T-097] , field pIC50: ≤ 5.00

Record Cn1cc(C(F)(F)F)nc1-c1ccc(Cn2c(=N)n(CC(F)(F)F)c3cnc(-c4cccnc4OC(F)F)nc32)cc1 [Example T-125] , field pIC50: 5.00 to 6.60

Record CC(C)c1ccccc1-c1ncc2c(n1)n(Cc1ccc(-c3nc(C(F)(F)F)cn3C)cc1)c(=N)n2C [Example B-2] , field pIC50: ≤ 5.00

* * *

Listed here: items and their measured IC50.
Test system: HCC1954
protocol description: Viability assay, BRCA1 WT cell line HCC1954
Format: cell-based
measurement context: Homo sapiens, HCC1954, viability, read-out: HCC1954 rel IC50

Example entries and their recorded answers appear below.
> print(dat)
                              line.notation  endpoint.name  reported.measurement
1  CC(C)c1ccccc1-c1ncc2c(n1)n(Cc1ccc(-c3nccn3C)cc1)c(=N)n2C           IC50               ≥ 10 µM
2  COc1cc(Cn2c(=N)n(C)c3cnc(-c4ccccc4C(C)C)nc32)ccc1-c1nc(C(F)(F)F)cn1C           IC50               ≥ 10 µM
3  COc1nc(C)nc(C2CC2)c1-c1ncc2c(n1)n(Cc1ccc(-c3nc(C(F)(F)F)cn3C)cc1)c(=N)n2CC(F)(F)F           IC50               ≥ 10 µM
4  Cn1cc(C(F)(F)F)nc1-c1ccc(Cn2c(=N)n(C)c3cnc(-c4c(C5CC5)cnn4C)nc32)cc1           IC50               ≥ 10 µM
5  C=C(C)c1ccccc1-c1ncc2c(n1)n(Cc1ccc(-c3nc(C(F)(F)F)cn3C)cc1)c(=N)n2C           IC50               ≥ 10 µM

Record CC(C)c1ccccc1-c1nc(N(C)C)c2c(n1)n(Cc1ccc(-c3nc(C(F)(F)F)cn3C)cc1)c(=N)n2C , field IC50: 0.25 to 10 µM

Record Cn1cc(C(F)(F)F)nc1-c1ccc(Cn2c(=N)n(C)c3cnc(-c4ccccc4OC(F)F)nc32)cc1 , field IC50: ≥ 10 µM

Record CCOc1cc(C(F)(F)F)nn1-c1ccc(Cn2c(=N)n(C)c3cnc(-c4ccccc4C(C)C)nc32)cc1 , field IC50: 0.25 to 10 µM

Record COc1nccc(C)c1-c1ncc2c(n1)n(Cc1ccc(-c3nc(C(F)(F)F)cn3C)cc1)c(=N)n2C , field IC50: ≥ 10 µM

Record COc1ncnc(C2CC2)c1-c1ncc2c(n1)n(Cc1cc(F)c(-c3nc(C(F)(F)F)cn3C)cc1F)c(=N)n2C , field IC50: ≥ 10 µM

Record Cn1cc(C(F)(F)F)nc1-c1ccc(Cn2c(=N)n(C)c3cnc(-c4c(F)cccc4OC(F)F)nc32)cc1 , field IC50: ≥ 10 µM
